# Tested on: A431
# Method Description: LBPA endosome anti-LBPA integrated intensity (sum per cell), Z-score; higher = more LBPA staining
# Condition Parameters: compound concentration in added solution (µM; 5 µl added to 20 µl cells): 10; 18 h
Where a name gives a salt, the structure may show the parent alone.
Quick list: LBPA endosome anti-LBPA integrated intensity (z-score) per entry.

// below: answered compounds
# NCC(CC(=O)O)c1ccc(Cl)cc1 (racemic) [Baclofen (R,S)] with A431: LBPA endosome anti-LBPA integrated intensity (z-score) is -0.529

# c1ccc2nc(N3CCNCC3)ccc2c1 [Quipazine dimaleate salt] with A431: LBPA endosome anti-LBPA integrated intensity (z-score) is -0.64

# C(#CCN1CCCC1)CN1CCCC1 [Tremorine dihydrochloride] with A431: LBPA endosome anti-LBPA integrated intensity (z-score) is -0.282

# CC(CCc1ccccc1)NC(C)C(O)c1ccc(O)cc1 (centres undefined) with A431: LBPA endosome anti-LBPA integrated intensity (z-score) is 0.233

# `C[C@]12CC[C@@H](O)C[C@@H]1CC[C@@H]1[C@@H]2CC[C@]2(C)C(=O)CC[C@@H]12` with A431: LBPA endosome anti-LBPA integrated intensity (z-score) is -0.387

---
# `O=c1c2ccccc2[se]n1-c1ccccc1` with A431: LBPA endosome anti-LBPA integrated intensity (z-score) is -0.435

# CCCN1C[C@H](CSC)C[C@@H]2c3cccc4[nH]cc(c34)C[C@H]21 [Pergolide mesylate] with A431: LBPA endosome anti-LBPA integrated intensity (z-score) is 2.35

# CN1[C@@H]2CC[C@H]1C[C@@H](OC(=O)C(CO)c1ccccc1)C2 (some centres undefined) [Atropine sulfate monohydrate] with A431: LBPA endosome anti-LBPA integrated intensity (z-score) is -0.568

# O=[N+]([O-])O[C@H]1CO[C@H]2[C@@H]1OC[C@H]2O[N+](=O)[O-] [Isosorbide dinitrate] with A431: LBPA endosome anti-LBPA integrated intensity (z-score) is -0.547

====

# System: HeLa MZ
# Method Description: filipin (cholesterol) integrated intensity within LBPA endosomes, Z-score; higher = more cholesterol in LBPA endosomes
# Condition Parameters: compound concentration in added solution (µM; 5 µl added to 20 µl cells): 10; 18 h
Counter-ions that a name gives are not always drawn.
Quick list: filipin (z-score) per entry.
Give only the figure.

filipin (z-score) recorded for this compound, `CCN(C(C)=O)c1cccc(-c2ccnc3c(C#N)cnn23)c1` , is -0.507

filipin (z-score) recorded for this compound, CC(Cc1ccccc1)NCCC(c1ccccc1)c1ccccc1 (stereo not given) [Prenylamine lactate] , is 2.44

filipin (z-score) recorded for this compound, O=C1CC[C@@]2(O)[C@H]3Cc4ccc(O)c5c4[C@@]2(CCN3CC2CC2)[C@H]1O5 [Naltrexone hydrochloride dihydrate] , is -0.466

filipin (z-score) recorded for this compound, CCCCCC[C@H]1C(=O)O[C@H](C)[C@H](NC(=O)c2cccc(NC=O)c2O)C(=O)O[C@@H](C)[C@@H]1OC(=O)CC(C)C [Antimycin A] , is -0.994

filipin (z-score) recorded for this compound, `C1CCc2nnnn2CC1` , is -0.614

====

# Test system: A431
# Method Description: filipin (cholesterol) integrated intensity within LBPA endosomes, Z-score; higher = more cholesterol in LBPA endosomes
# Condition Parameters: compound concentration in added solution (µM; 5 µl added to 20 µl cells): 10; 18 h
Structures can show the parent of a compound that is named as a salt.
Group membership follows filipin (z-score) per the scheme category 1 (below -0.5), category 2 (-0.5 to below -0.3), category 3 (-0.3 or more)

Please review the entries below; each comes with its answer.
Form: Item = O=c1[nH]c2ccccc2n1C1CCN(CCCC(c2ccc(F)cc2)c2ccc(F)cc2)CC1 [Pimozide] ; Class = ?
category 3

Form: Item = O=P1(NCCCl)OCCCN1CCCl (stereo not given) [Ifosfamide] ; Class = ?
category 2

Form: Item = `C=C1C[C@@H]2[C@H](CC[C@]3(C)C(=O)CC[C@@H]23)[C@@]2(C)C=CC(=O)C=C12` ; Class = ?
category 1

Form: Item = S=C(NC1CCCCC1)N1CCC(c2cnc[nH]2)CC1 [Thioperamide maleate] ; Class = ?
category 3

Form: Item = `CCN(C)C(=O)Oc1cccc([C@H](C)N(C)C)c1` ; Class = ?
category 2

Form: Item = CNC(=O)Oc1ccc2c(c1)[C@]1(C)CCN(C)[C@@H]1N2C [Eserine sulfate, physostigmine sulfate] ; Class = ?
category 2

Form: Item = `C[C@]12COC(=O)C[C@@H]1CC[C@@H]1[C@@H]2CC[C@@]2(C)[C@H]1CC[C@]2(C)O` ; Class = ?
category 2

Form: Item = CC(C)N(CCC(C(N)=O)(c1ccccc1)c1ccccn1)C(C)C (stereo not given) [Disopyramide] ; Class = ?
category 2

---
Form: Item = CC(C)(C)NCC(O)c1ccccc1Cl (stereo not given) ; Class = ?
category 2

Form: Item = COc1ccc(C(CN(C)C)C2(O)CCCCC2)cc1 (stereo not given) ; Class = ?
category 2

Form: Item = C[C@]12CC[C@H](O)C[C@@H]1CC[C@@H]1[C@@H]2CC[C@]2(C)C(=O)CC[C@@H]12 [Epiandrosterone] ; Class = ?
category 3

Form: Item = COP(=O)(OC)C(O)C(Cl)(Cl)Cl (stereo not given) ; Class = ?
category 1

Form: Item = `NCC1(CC(=O)O)CCCCC1` ; Class = ?
category 1

Form: Item = CN1C[C@H](C(=O)N[C@]2(C)O[C@@]3(O)[C@@H]4CCCN4C(=O)[C@H](Cc4ccccc4)N3C2=O)C[C@@H]2c3cccc4[nH]cc(c34)C[C@H]21 [Dihydroergotamine tartrate] ; Class = ?
category 3

====

# Test system: A431
# Method Description: filipin (cholesterol) integrated intensity within LBPA endosomes, Z-score; higher = more cholesterol in LBPA endosomes
# Condition Parameters: compound concentration in added solution (µM; 5 µl added to 20 µl cells): 10; 18 h
Counter-ions that a name gives are not always drawn.
Measure Name: filipin (z-score)
Give only the figure.

filipin (z-score) recorded for this compound, CC(=O)O[C@H]1CC[C@@]2(C)C(=CC[C@@H]3[C@@H]2CC[C@]2(C)C(=O)CC[C@@H]32)C1 [Dehydroisoandosterone 3-acetate] , is -0.136

filipin (z-score) recorded for this compound, C[N+]12CCC(CC1)C(OC(=O)C(O)(c1ccccc1)c1ccccc1)C2 (stereo not drawn) [Clidinium bromide] , is -0.455

filipin (z-score) recorded for this compound, CCN(CC)C(C)C(=O)c1ccccc1 (stereo not drawn) [Amfepramone hydrochloride] , is -0.654

filipin (z-score) recorded for this compound, CNC(C)(C)Cc1ccccc1 [Mephentermine hemisulfate] , is -0.471

---
filipin (z-score) recorded for this compound, NCC(CC(=O)O)c1ccc(Cl)cc1 (racemic) [Baclofen (R,S)] , is -0.513

filipin (z-score) recorded for this compound, CCC1=C[C@H]2CN3CCc4c([nH]c5ccccc45)[C@](C(=O)OC)(C2)[C@H]13 [Catharanthine] , is 0.958

filipin (z-score) recorded for this compound, COc1cccc(C2(O)CCCCC2CN(C)C)c1 (stereo not drawn) [Tramadol hydrochloride] , is -0.403

filipin (z-score) recorded for this compound, O[C@@H]1CCCC[C@H]1N1CCC(c2ccccc2)CC1 [L(-)-vesamicol hydrochloride] , is -0.268

====

Quick list: filipin (z-score) per entry.
# Test system: A431
# Method Description: filipin (cholesterol) integrated intensity within LBPA endosomes, Z-score; higher = more cholesterol in LBPA endosomes
# Condition Parameters: compound concentration in added solution (µM; 5 µl added to 20 µl cells): 10; 18 h
Structures can show the parent of a compound that is named as a salt.

// below: answered compounds
# CCCC(C)(COC(N)=O)COC(=O)NC(C)C (stereo not drawn) with A431: filipin (z-score) is -0.607

# O=c1[nH]oc2c1CCNC2 [THIP Hydrochloride] with A431: filipin (z-score) is -0.413

# CCC(=O)O[C@H]1CC[C@H]2[C@@H]3CCC4=CC(=O)CC[C@]4(C)[C@H]3CC[C@]12C [Testosterone propionate] with A431: filipin (z-score) is -0.502

---
# `CC(=O)OCC1=C(C(=O)O)N2C(=O)[C@@H](N)[C@H]2SC1` with A431: filipin (z-score) is -0.581

====

# Test system: HeLa MZ
# Method Description: whole-cell filipin (free cholesterol) integrated intensity, Z-score; higher = more cholesterol staining
# Condition Parameters: compound concentration in added solution (µM; 5 µl added to 20 µl cells): 10; 18 h
Structures can show the parent of a compound that is named as a salt.
If the reported whole-cell filipin (z-score) equals or exceeds -0.6, assign Condition met. If not, assign Condition not met.

Please review the entries below; each comes with its answer.
Would you say CCC(=O)O[C@H]1CC[C@H]2[C@@H]3CCC4=CC(=O)CC[C@]4(C)[C@H]3CC[C@]12C [Testosterone propionate] shows whole-cell filipin (z-score) at minimum -0.6?
Condition not met

Would you say O=c1[nH]oc2c1CCNC2 [THIP Hydrochloride] shows whole-cell filipin (z-score) at minimum -0.6?
Condition not met

Would you say CCCC(C)C1(CC)C(=O)NC(=O)NC1=O (stereo not drawn) [Pentobarbital] shows whole-cell filipin (z-score) at minimum -0.6?
Condition not met

Would you say C[N+]1(C)[C@@H]2CC[C@H]1C[C@@H](OC(=O)C(CO)c1ccccc1)C2 (stereo partly drawn) [Methylatropine nitrate] shows whole-cell filipin (z-score) at minimum -0.6?
Condition met

Would you say c1ccc2c(c1)OCC(C1=NCCN1)O2 (stereo not drawn) [Idazoxan hydrochloride] shows whole-cell filipin (z-score) at minimum -0.6?
Condition not met

---
Would you say CC(C)C[C@H]1C(=O)N2CCC[C@H]2[C@]2(O)O[C@](NC(=O)[C@@H]3C=C4c5cccc6[nH]c(Br)c(c56)C[C@H]4N(C)C3)(C(C)C)C(=O)N12 [Bromocryptine mesylate] shows whole-cell filipin (z-score) at minimum -0.6?
Condition met

Would you say O=[N+]([O-])O[C@H]1CO[C@H]2[C@@H]1OC[C@H]2O[N+](=O)[O-] [Isosorbide dinitrate] shows whole-cell filipin (z-score) at minimum -0.6?
Condition not met

Would you say CC(NC(C)(C)C)C(=O)c1cccc(Cl)c1 (stereo not drawn) [Bupropion hydrochloride] shows whole-cell filipin (z-score) at minimum -0.6?
Condition met
